B1: tRNA (parent)
chain: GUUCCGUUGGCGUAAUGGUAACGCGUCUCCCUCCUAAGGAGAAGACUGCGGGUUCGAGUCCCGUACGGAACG

Variants of: B1
Test: yeast fitness relative to wild type (ratio to wild type); higher = fitter; tRNA-Arg(CCU), competitive growth, 37 C, YPD
Variants at the floor of the assay were thinned out.
Given measured yeast fitness, output Fulfilled if it is greater than or equal to 0.6 and Not fulfilled if not.

{"changes": "C22A C24A U26C C66U", "class": "Not fulfilled"}
{"changes": "A21G C60U", "class": "Fulfilled"}
{"changes": "G12C A69C A70U", "class": "Fulfilled"}
{"changes": "C31U C33A A43U G48A U53A", "class": "Not fulfilled"}
{"changes": "U13G C22G", "class": "Fulfilled"}
{"changes": "C30G A57U C60G", "class": "Not fulfilled"}
{"changes": "U8G G12A G50C G52C C55U C62U A70C", "class": "Not fulfilled"}
{"changes": "C5A C11G A45C", "class": "Not fulfilled"}
{"changes": "A20U A36G G67C A69C", "class": "Not fulfilled"}
{"changes": "C62G A70C", "class": "Fulfilled"}
{"changes": "C27U A36G A42C C49U", "class": "Not fulfilled"}
{"changes": "U26A A43C", "class": "Fulfilled"}
{"changes": "C5U C34A G67A", "class": "Not fulfilled"}
{"changes": "U7A U19A A69C", "class": "Not fulfilled"}
{"changes": "G18A A43U", "class": "Fulfilled"}
{"changes": "U7C A36G", "class": "Fulfilled"}
{"changes": "A14C U19G U32A G52C", "class": "Not fulfilled"}
{"changes": "G23C", "class": "Fulfilled"}
{"changes": "U16A A43C", "class": "Fulfilled"}
{"changes": "C4A U7C A21C C22U G50C A70U", "class": "Not fulfilled"}
